- TEST NAME: Cytotoxicity against human A549 cells assessed as cell growth at 10 uM by Cell titer-Glo assay relative to control
- Format: cell-based
- DETAILS: read-out: Activity
MEASUREMENT KIND: viability at 10 µM (%)
Field format: number, assumed %, no unit text.

Completed entries (count: 3):
COc1cc(O)c(C(=O)/C=C/c2cc(OC)c(OC)c(OC)c2)cc1OC	115
COc1ccc(O)c(C(=O)/C=C/c2ccc(OC)c(OC)c2)c1	116
COc1ccc(/C=C/C(=O)c2cc(OC)ccc2O)cc1	91.3

Now examine the next entry.
get_value(item= COc1ccc(O)c(C(=O)/C=C/c2cc(OC)c(OC)c(OC)c2)c1 , readout=viability at 10 µM) returns 108
